The reported numbers originate from patent US10689327B2.

ASSAY_PROCEDURE: Stability test in solution (pH 1.2 and pH 6.5)
Type: physicochemical
CONDITION_SUMMARY: hydrochloric acid solution pH 1.2, 37° C., 1 hour
Each entry below lists one item and its recorded Compound's percent residue (%) pH 1.2 value.
Give the quantity in %, number only.

CCCO[C@@H]1C[C@@H]2[C@H]([C@]1(N)C(=O)OC(C)OC(=O)O[C@H]1C[C@H]3CC[C@]1(C)C3(C)C)[C@@]2(F)C(=O)O (some centres unmarked) [Example 20] :: 106
CCCO[C@@H]1C[C@@H]2[C@H]([C@]1(N)C(=O)O[C@@H](C)OC(=O)O[C@@H]1C[C@H](C)CC[C@H]1C(C)C)[C@@]2(F)C(=O)O [Example 13] :: 98
C[C@@H](OC(=O)C12CC3CC(CC(C3)C1)C2)OC(=O)[C@@]1(N)[C@H]2[C@@H](C[C@H]1OCc1cccc(Cl)n1)[C@]2(F)C(=O)O [Example 24] :: 95
CC(C)[C@@H]1CC[C@@H](C)C[C@H]1OC(=O)O[C@H](C)OC(=O)[C@@]1(N)[C@H]2[C@@H](C[C@H]1OCc1cccc(Cl)n1)[C@]2(F)C(=O)O [Example 33] :: 96
N[C@]1(C(=O)OCOC(=O)C2CCCCC2)[C@H]2[C@@H](C[C@H]1OCc1ccc(F)cc1)[C@]2(F)C(=O)O [Example 37] :: 102
CC(OC(=O)O[C@H]1C[C@H]2CC[C@]1(C)C2(C)C)OC(=O)[C@@]1(N)[C@H]2[C@@H](C[C@H]1OCc1ccc(F)cc1)[C@]2(F)C(=O)O (single isomer, unassigned) [Example 19-B] :: 100
C[C@@H](OC(=O)C12CC3CC(CC(C3)C1)C2)OC(=O)[C@@]1(N)[C@H]2[C@@H](C[C@H]1OCc1cccc(F)c1)[C@]2(F)C(=O)O [Example 23] :: 101
Cc1ccc(CO[C@@H]2C[C@@H]3[C@H]([C@]2(N)C(=O)O[C@@H](C)OC(=O)O[C@@H]2C[C@H](C)CC[C@H]2C(C)C)[C@@]3(F)C(=O)O)cc1 [Example 34] :: 100
COc1cc([C@@H](C)O[C@@H]2C[C@@H]3[C@H]([C@]2(N)C(=O)O[C@@H](C)OC(=O)C24CC5CC(CC(C5)C2)C4)[C@@]3(F)C(=O)O)ccc1F [Example 25] :: 98
C[C@@H](OC(=O)C12CC3CC(CC(C3)C1)C2)OC(=O)[C@@]1(N)[C@H]2[C@@H](C[C@H]1OCc1ccc(F)cc1)[C@]2(F)C(=O)O [Example 4] :: 98

In: Query (compound): C[C@@H](OC(=O)C12CC3CC(CC(C3)C1)C2)OC(=O)[C@@]1(N)[C@H]2[C@@H](C[C@H]1OCc1ccc(C(F)(F)F)cc1)[C@]2(F)C(=O)O [Example 22] ; field requested: Compound's percent residue (%) pH 1.2
Out: 96
